Sourced from the supplement of paper PMC8671470

test system: myeloid leukemia patient primary cells Pat.7; assay: cell viability (% survival relative to DMSO control); higher = less cytotoxic; conditions: 100 nM; 72 h
I'd appreciate it if you could supply cell viability values for the items below.
Value expressed in %; do not type the unit.

Specify cell viability for "Cn1cc(-c2ccncc2)c(-c2ccc(OCc3ccc4ccccc4n3)cc2)n1" and stop. 82.7

Specify cell viability for Cc1[nH]nc(C(F)(F)F)c1Cc1sc2c(c1C(=O)N1C[C@](C)(O)CO1)c(=O)n(C)c(=O)n2C(C)C [AZD3965] and stop. 93.6

Specify cell viability for CO[C@H]1C[C@@H]2CC[C@@H](C)[C@@](O)(O2)C(=O)C(=O)N2CCCC[C@H]2C(=O)O[C@H]([C@H](C)C[C@@H]2CC[C@@H](OCCO)[C@H](OC)C2)CC(=O)[C@H](C)/C=C(\C)[C@@H](O)[C@@H](OC)C(=O)[C@H](C)C[C@H](C)/C=C/C=C/C=C/1C [Everolimus] and stop. 99.3

----------
tested on: SHI-1; test: cell viability (% survival relative to DMSO control, bortezomib = 0%); higher = less cytotoxic; details: 1000 nM; 72 h
Structures can show the parent of a compound that is named as a salt.
I'd appreciate it if you could supply cell viability values for the items below.
Value expressed in %; do not type the unit.

Give the observed cell viability of "CO[C@H]1C[C@@H]2CC[C@@H](C)[C@@](O)(O2)C(=O)C(=O)N2CCCC[C@H]2C(=O)O[C@H]([C@H](C)C[C@@H]2CC[C@@H](OCCO)[C@H](OC)C2)CC(=O)[C@H](C)/C=C(\C)[C@@H](O)[C@@H](OC)C(=O)[C@H](C)C[C@H](C)/C=C/C=C/C=C/1C" for SHI-1. 56.7

Give the observed cell viability of CCN(CCO)CCCC(C)Nc1ccnc2cc(Cl)ccc12 (stereo not drawn) [Hydroxychloroquine sulfate] for SHI-1. 127

Give the observed cell viability of "Cn1cc(-c2ccncc2)c(-c2ccc(OCc3ccc4ccccc4n3)cc2)n1" for SHI-1. 104

----------
test system: myeloid leukemia patient primary cells Pat.12; experiment: cell viability (% survival relative to DMSO control); higher = less cytotoxic; details: 1000 nM; 72 h
Response field label: string, one of true (1) (cell viability strictly below 90%) or false (0).

Consider the compound "C[C@]12C=CC(=O)C=C1CC[C@@H]1[C@@H]2[C@@H](O)C[C@@]2(C)[C@H]1CC[C@]2(O)C(=O)CO" . Is its cell viability strictly less than 90%? true (1)

Consider the compound "CC(C)(C)c1ccc(S(=O)(=O)NCc2ccc(C(=O)Nc3cccnc3)cc2)cc1" . Is its cell viability strictly less than 90%? true (1)

Consider the compound "CN1CCN(CCCN2c3ccccc3Sc3ccc(C(F)(F)F)cc32)CC1" . Is its cell viability strictly less than 90%? true (1)

Consider the compound "Cc1[nH]nc(C(F)(F)F)c1Cc1sc2c(c1C(=O)N1C[C@](C)(O)CO1)c(=O)n(C)c(=O)n2C(C)C" . Is its cell viability strictly less than 90%? false (0)

----------
system: myeloid leukemia patient primary cells Pat.8; assay: cell viability (% survival relative to DMSO control); higher = less cytotoxic; conditions: 1 nM; 72 h
Response field label: string, one of label 1 (cell viability strictly below 90%) or label 0.

Consider the compound "CN1CCN(CCCN2c3ccccc3Sc3ccc(C(F)(F)F)cc32)CC1" . Is its cell viability strictly less than 90%? label 1

Consider the compound "CC(C)(C)c1ccc(S(=O)(=O)NCc2ccc(C(=O)Nc3cccnc3)cc2)cc1" . Is its cell viability strictly less than 90%? label 0

Consider the compound "C[C@]12C=CC(=O)C=C1CC[C@@H]1[C@@H]2[C@@H](O)C[C@@]2(C)[C@H]1CC[C@]2(O)C(=O)CO" . Is its cell viability strictly less than 90%? label 1

Consider the compound "O=C1C(SCCO)=C(SCCO)C(=O)c2ccccc21" . Is its cell viability strictly less than 90%? label 1

Consider the compound "CCN(CC)C(=S)SSC(=S)N(CC)CC" . Is its cell viability strictly less than 90%? label 1
